# protocol: Stability profile at 25° C. in buffered aqueous solutions
# Type: physicochemical
# stated_conditions: pH 5, Citric Acid (0.1 M)/Na2HPO4 (0.2 M), 25° C.
endpoint_name: Degradation Rate Constant (k) (h⁻¹)
Provide only the numeric value, understood in h⁻¹.

Exercise: What value of Degradation Rate Constant (k) has been reported for the following compound? COc1ccc2c(c1)nc([S+]([O-])Cc1ncc(C)c(OC)c1C)n2S(=O)(=O)c1ccc(OCC(=O)O)cc1 (stereo not shown)
Solution: 0.008

====

# protocol: Stability profile at 25° C. in buffered aqueous solutions
# Assay type: physicochemical
# stated_conditions: pH 7, sodium phosphate (0.1-0.2 M), 25° C.
endpoint_name: Degradation Rate Constant (k) (h⁻¹)
Provide only the numeric value, understood in h⁻¹.

Exercise: What value of Degradation Rate Constant (k) has been reported for the following compound? COc1ccc2c(c1)nc([S+]([O-])Cc1ncc(C)c(OC)c1C)n2S(=O)(=O)c1ccc(OCC(=O)O)cc1 (stereo not shown)
Solution: 0.002

====

# protocol: Stability profile at 25° C. in buffered aqueous solutions
# Format: physicochemical
# stated_conditions: pH 1, 0.1 M HCl, 25° C.
endpoint_name: Degradation Rate Constant (k) (h⁻¹)
Provide only the numeric value, understood in h⁻¹.

Exercise: What value of Degradation Rate Constant (k) has been reported for the following molecule? COc1ccc2c(c1)nc([S+]([O-])Cc1ncc(C)c(OC)c1C)n2S(=O)(=O)c1ccc(OCC(=O)O)cc1 (stereo not shown) [Compound 1]
Solution: 0.194

The origin of these recorded values is patent US20100222390A1.
